target: human GPCR142 (human, UniProt Q8TDU9 1-374); assay: cell-based or functional assay
Sequence (Q8TDU9 whole entry L329S, form in doubt): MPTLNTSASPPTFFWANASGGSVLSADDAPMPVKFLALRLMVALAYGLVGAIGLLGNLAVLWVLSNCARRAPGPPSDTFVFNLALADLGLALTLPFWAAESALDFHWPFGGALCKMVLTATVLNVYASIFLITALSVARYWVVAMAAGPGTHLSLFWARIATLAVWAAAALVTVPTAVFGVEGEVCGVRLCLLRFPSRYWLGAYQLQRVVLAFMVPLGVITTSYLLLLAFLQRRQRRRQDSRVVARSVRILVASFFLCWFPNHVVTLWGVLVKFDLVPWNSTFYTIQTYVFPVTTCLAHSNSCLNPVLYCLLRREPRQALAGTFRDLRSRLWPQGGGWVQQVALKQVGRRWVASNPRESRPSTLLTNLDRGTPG
Ends that are not written are not given here.
Field: EC50, inhibition of forskolin stimulated β-galactosidase expression. Provide a value for each of the binders that follow.
Answers are plain numbers, in nM.

Quick note, EC50, inhibition of forskolin stimulated β-galactosidase expression for Relaxin-3/INSL5 (R3/I5) chimeric polypeptide (ligand, disulfide (positions not given here); also: two chains joined by disulfide bonds, places not given here, Two chains joined by disulfide bonds; FLAG tag removed with enterokinase; also called R3/I5 chimera; I5/R3) chain 1: RAAPYGVRLCGREFIRAVIFTCGGSRW chain 2: DLQTLCCTDGCSMTDLSALC landed at 0.91

Turning now to a further record.
For Relaxin-3/Relaxin-2 (R3/R2) chimeric polypeptide (ligand, human, disulfide (positions not given here); also: two chains joined by disulfide bonds, pairing not given here, domain: A-chain; Two chains joined by disulfide bonds; FLAG tag removed) chain 1: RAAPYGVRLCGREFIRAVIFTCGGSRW chain 2: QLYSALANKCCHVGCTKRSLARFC the binder record lists EC50, inhibition of forskolin stimulated β-galactosidase expression as 1.4
